Reported values of pIC50 for individual entries
- ASSAYED SYSTEM: Glutaminase liver isoform, mitochondrial (Homo sapiens, UniProt Q9UI32)
- Sequence (Q9UI32 whole entry): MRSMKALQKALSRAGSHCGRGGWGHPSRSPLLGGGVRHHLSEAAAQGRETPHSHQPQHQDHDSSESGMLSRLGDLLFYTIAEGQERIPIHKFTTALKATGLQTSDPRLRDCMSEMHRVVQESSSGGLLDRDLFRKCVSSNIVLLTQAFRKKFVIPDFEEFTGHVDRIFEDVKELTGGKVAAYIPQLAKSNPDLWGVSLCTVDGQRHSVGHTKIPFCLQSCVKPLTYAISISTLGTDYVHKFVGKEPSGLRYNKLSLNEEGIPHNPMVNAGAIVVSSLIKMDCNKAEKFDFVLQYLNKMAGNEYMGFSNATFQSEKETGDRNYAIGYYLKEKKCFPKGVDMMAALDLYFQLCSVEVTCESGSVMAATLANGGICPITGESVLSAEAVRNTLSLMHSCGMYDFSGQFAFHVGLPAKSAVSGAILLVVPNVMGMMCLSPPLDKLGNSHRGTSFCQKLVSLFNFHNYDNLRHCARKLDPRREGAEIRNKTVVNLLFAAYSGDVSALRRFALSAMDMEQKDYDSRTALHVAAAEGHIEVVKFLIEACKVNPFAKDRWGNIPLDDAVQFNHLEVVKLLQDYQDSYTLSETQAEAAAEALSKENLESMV
- METHOD DESCRIPTION: Inhibition of GLS2 (unknown origin)
pIC50: −log10 of the molar value.

{"CHEMICAL SMILES": "CN1CCN(c2cccc(NC(=O)c3ccc(COCCC4CCN(c5nnc(NC(=O)Cc6ccccc6)s5)CC4)cc3)c2)CC1", "ASSAYED SYSTEM": "Glutaminase liver isoform, mitochondrial (Homo sapiens, UniProt Q9UI32)", "pIC50": "< 4.82"}
{"CHEMICAL SMILES": "CN1CCN(c2cccc(NC(=O)c3cccc(CN4CCN(c5nnc(NC(=O)Cc6ccccc6)s5)CC4)c3)c2)CC1", "ASSAYED SYSTEM": "Glutaminase liver isoform, mitochondrial (Homo sapiens, UniProt Q9UI32)", "pIC50": "< 4.82"}
{"CHEMICAL SMILES": "CCCCCCN1CCC(CNC(=O)c2cccc(COCCC3CCN(c4nnc(NC(=O)Cc5ccccc5)s4)CC3)c2)CC1", "ASSAYED SYSTEM": "Glutaminase liver isoform, mitochondrial (Homo sapiens, UniProt Q9UI32)", "pIC50": "< 4.82"}
